# assay details: p53 small molecule agonists, cell-based qHTS assay with human liver microsomes: qHTS cell viability counter screen (AID 1963579); further: nearly all actives have a fitted effect of over 45% in size
# condition parameters: p53RE-bla HCT-116 viability, ATP luminescence, 16 h, HLM; series mostly up to 66 µM
Results filed as inconclusive are left out. The source made the active and inactive calls. The call rests on the fitted dose curve.
Just give me one of these, please: active, inactive

As a guide, the following entries are already answered.
compound	category
COc1cccc2sc(N)nc12	inactive
CC(C)N1C(=O)c2ccccc2C1=O	inactive
Nc1c(Cl)cc(Cl)cc1[N+](=O)[O-]	inactive
CC(=O)OCC(=O)[C@H]1CC[C@H]2[C@@H]3CCC4=CC(=O)CC[C@]4(C)[C@H]3CC[C@]12C	inactive
NC(=O)N(O)[C@@H]1COc2cc(OCc3ccccc3)ccc21	inactive
CC(=O)OCC(=O)NCCCOc1cccc(CN2CCCCC2)c1	inactive
O=[N+]([O-])c1cc(C2CCCCC2)c(O)c([N+](=O)[O-])c1	active
C=Cc1ccc(O)c(OC)c1	inactive

Request: Look up the recorded call for CN1CCN(C)CC1 in this test.
Response: inactive

Request: Look up the recorded call for O=c1[nH]c(=O)n([C@H]2C[C@H](O)[C@@H](CO)O2)cc1F in this test.
Response: inactive

Request: Look up the recorded call for Cc1ccc2c(Br)cc(Br)c(O)c2n1 in this test.
Response: inactive

Request: Look up the recorded call for COc1ccnc(CS(=O)c2nc3cc(OC(F)F)ccc3[nH]2)c1OC (centres undefined) in this test.
Response: inactive

====

# target under test: 5-hydroxytryptamine receptor 2A (Homo sapiens)
# assay details: 5-hydroxytryptamine receptor 2A (HTR2A) small molecule antagonists, cell-based qHTS assay (AID 1963586); further: on the % scale 0 is the no-effect control and ±100 the full control effect; nearly all actives have a fitted effect of over 45% in size
# condition parameters: HTR2A-CHO cells, DOI-induced calcium flux, fluorescence; series mostly up to 61.5 µM
Records with an inconclusive call do not appear. Calls of active or inactive are those of the source. The call rests on the fitted dose curve.
Just give me one of these, please: active, inactive

molecule	category
CC(C)COC(=O)/C=C/c1ccccc1	inactive
COc1c2occc2c(OC)c2c(=O)cc(C)oc12	inactive
Cc1ccc(N/N=c2\c(=O)cc/c(=N\Nc3ccc(S(=O)(=O)O)cc3)c2=O)c(C)c1	inactive

Request: Look up the recorded call for O=C(O)CCCl in this test.
Response: inactive

Request: Look up the recorded call for O=S(=O)(Oc1ccc(Cl)cc1)c1ccccc1 in this test.
Response: inactive

Request: Look up the recorded call for CNC(=O)C(c1ccccc1)c1ccccc1 in this test.
Response: inactive

Request: Look up the recorded call for CCCC[N+](C)(CCCC)CCCC in this test.
Response: inactive

Request: Look up the recorded call for CCC(=O)Oc1ccc(/C(CC)=C(\CC)c2ccc(OC(=O)CC)cc2)cc1 in this test.
Response: inactive

====

# target under test: D(2) dopamine receptor (Homo sapiens) (UniProt P14416)
# Sequence (P14416 whole entry, looked up): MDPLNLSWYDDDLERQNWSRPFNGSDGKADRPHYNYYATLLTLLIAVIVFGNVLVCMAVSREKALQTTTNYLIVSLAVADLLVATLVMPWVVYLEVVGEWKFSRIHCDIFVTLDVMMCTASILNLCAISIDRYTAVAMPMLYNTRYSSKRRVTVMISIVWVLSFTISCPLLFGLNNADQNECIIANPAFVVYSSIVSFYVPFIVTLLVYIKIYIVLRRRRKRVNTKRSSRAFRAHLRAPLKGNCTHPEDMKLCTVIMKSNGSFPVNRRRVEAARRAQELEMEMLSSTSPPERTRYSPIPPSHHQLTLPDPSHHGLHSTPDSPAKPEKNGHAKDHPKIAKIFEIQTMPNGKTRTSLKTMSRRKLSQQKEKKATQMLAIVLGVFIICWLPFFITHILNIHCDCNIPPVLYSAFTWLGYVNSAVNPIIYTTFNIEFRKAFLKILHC
# assay details: Dopamine D2 receptor (DRD2) small molecule antagonists, cell-based qHTS assay (AID 1963595); further: on the % scale 0 is the no-effect control and ±100 the full control effect
# condition parameters: HEK293-DRD2 cAMP HTRF antagonist mode; series mostly up to 92.4 µM
Results filed as inconclusive are left out. Calls of active or inactive are those of the source. Calls come from the whole dose curve; as a rule, active = well fitted inhibition curve with a large enough effect in the signal ratio in the repeat runs, with a control signal flat; inconclusive = weak or mixed curves, or effect the other way; inactive = flat fitted curve, though single readings scatter; the % refers to the signal ratio.
Just give me one of these, please: active, inactive

As a guide, the following entries are already answered.
compound	category
Oc1ccc2ccccc2c1	inactive
CCO[Si](CCCS)(OCC)OCC	inactive
O=C(O)CCCl	inactive

Request: Look up the recorded call for O=C1NCCN1 in this test.
Response: inactive

====

# target under test: Muscarinic acetylcholine receptor M1 (Homo sapiens)
# assay details: Cholinergic receptor muscarinic 1 (CHRM1) small molecule antagonists, cell-based qHTS assay (AID 1963588); further: on the % scale 0 is the no-effect control and ±100 the full control effect; nearly all actives have a fitted effect of over 40% in size
# condition parameters: CHRM1-CHO antagonist mode, calcium flux fluorescence; series mostly up to 61.5 µM
# Excerpt: National Center for Advancing Translational Sciences [NCATS] Division of Preclinical Innovation [DPI] U.S. Environmental Protection Agency [EPA] National Institutes of Environmental Health Sciences [NIEHS] National Toxicology Program [NTP] U.S. Food and Drug Administration [FDA] The CHRM1 is a muscarinic receptor. […] The CHRM1-CHO Calcium Flux Assay is a homogeneous fluorescence-based assay for detecting the intracellular calcium level using FDSS kinetic plate reader system. […]
Results filed as inconclusive are left out. Activity calls are given as the source filed them. The call rests on the fitted dose curve.
Just give me one of these, please: active, inactive

compound	category
CCSCC	inactive

Request: Look up the recorded call for CCCCCOC(=O)CCCCC in this test.
Response: inactive

Request: Look up the recorded call for NC(=O)c1c(Cl)cccc1Cl in this test.
Response: inactive

Request: Look up the recorded call for CC[N+](C)(CC)CC in this test.
Response: inactive

====

# assay details: Nuclear factor erythroid 2-related factor 2/antioxidant responsive element (Nrf2/ARE) small molecule agonists: luciferase reporter gene qHTS assay in human keratinocytes (AID 1919969); further: nearly all actives have a fitted effect of over 35% in size
# condition parameters: KeratinoSens HaCaT ARE-luciferase, luminescence, 24 h; series mostly up to 92.4 µM
# Description: National Center for Advancing Translational Sciences [NCATS] Division of Preclinical Innovation [DPI] U.S. Environmental Protection Agency [EPA] National Institutes of Environmental Health Sciences [NIEHS] National Toxicology Program [NTP] […] Oxidative stress has been implicated in the pathogenesis of a variety of diseases ranging from cancer to neurodegeneration. […] The activation of the report gene under culture conditions can be detected by ONE-Glo Luciferase Assay System (Promega, Madison, WI). […]
Records with an inconclusive call do not appear. Active and inactive are the calls of the source. Calls follow the shape of the full dose curve.
Just give me one of these, please: 1.0 for active, 0.0 for inactive

As a guide, the following entries are already answered.
compound	category
CCOC(=O)c1ccc(C#Cc2ccc3c(c2)C(C)(C)CCS3)nc1	0.0
N[C@@H](CS)C(=O)O	0.0
CN(C)c1ccc(SC#N)cc1	1.0
COC(=O)CCSCCC(=O)OC	0.0

Request: Look up the recorded call for CN1CCCC(CC2c3ccccc3Sc3ccccc32)C1 (centres undefined) in this test.
Response: 0.0

====

# assay details: Nuclear factor erythroid 2-related factor 2/antioxidant responsive element (Nrf2/ARE) small molecule agonists: qHTS cell viability counter screen in human keratinocytes (AID 1919968); further: on the % scale 0 is the no-effect control and ±100 the full control effect; nearly all actives have a fitted effect of over 55% in size
# condition parameters: KeratinoSens HaCaT ARE cells viability, CellTiter-Fluor, 24 h; series mostly up to 92.4 µM
Inconclusive results are not listed. Active and inactive are the calls of the source. The call rests on the fitted dose curve; in most records, active means well fitted cell-killing curve with a large enough effect in the repeat runs; inconclusive means weak or mixed curves, or effect the other way; inactive means flat fitted curve, though single readings scatter.
Just give me one of these, please: active, inactive

As a guide, the following entries are already answered.
compound	category
CC[N+](C)(CC)CC	inactive
CC(=O)c1ccc2c(c1)Cc1ccccc1-2	inactive
O=C1Nc2ccc([N+](=O)[O-])cc2C1=O	inactive
CN(C)CCOc1ccccc1Cc1ccccc1	inactive
O=[N+]([O-])c1ccc(O)c2ncccc12	inactive
CC/C=C\C/C=C\C/C=C\CCCCCCCC(=O)OCC	inactive
CC(C)CC(C)(C)C	inactive
CCCCC(CC)COP(=O)(O)O (centres undefined)	inactive

Request: Look up the recorded call for CCC1Nc2cc(Cl)c(S(N)(=O)=O)cc2S(=O)(=O)N1 (centres undefined) in this test.
Response: inactive

Request: Look up the recorded call for CSc1ccc(C=O)cc1 in this test.
Response: inactive

====

# assay details: p53 small molecule agonists, cell-based qHTS assay: qHTS cell viability counter screen (AID 1963581); further: on the % scale 0 is the no-effect control and ±100 the full control effect; nearly all actives have a fitted effect of over 45% in size
# condition parameters: p53RE-bla HCT-116 viability, ATP luminescence, 16 h; series mostly up to 66 µM
Inconclusive results are not listed. Activity calls are given as the source filed them. Calls follow the shape of the full dose curve.
measured endpoint: activity change, negative = cytotoxicity

compound	activity change, negative = cytotoxicity
COC(=O)CSc1cc(N=c2sc(=O)n3n2CCCC3)c(F)cc1Cl	inactive
Cc1nc(-c2ccccn2)ncc1C(=O)Nn1cc(C)c2cc(F)ccc21	inactive
CC1=CCC(C(C)C)C=C1 (stereo unspecified)	inactive
C=CC(C)=CCC=C(C)C	inactive
Cc1c(O)cccc1O	inactive

Look up activity change, negative = cytotoxicity for the entries below, preserving their order.
1. Nc1c(Cl)cc(Cl)cc1[N+](=O)[O-]
2. O=C(CS)OCCOC(=O)CS
3. O=Cc1ccc(O)c(O)c1O
4. Cc1cccc(C(=O)O)c1O
5. c1ccc2sc(SN3CCOCC3)nc2c1
6. NNc1nc(-c2ccccc2)cs1
7. Nc1ccc(F)cc1
8. C=C1CC[C@H](O)CC1=C/C=C1\CCC[C@]2(C)[C@@H]([C@H](C)/C=C/[C@H](C)C(C)C)CC[C@@H]12

Response:
1: inactive; 2: inactive; 3: inactive; 4: inactive; 5: inactive; 6: inactive; 7: inactive; 8: inactive

Look up activity change, negative = cytotoxicity for the entries below, preserving their order.
1. CC/C=C\CC/C=C/CO
2. O=C1CCC(=O)N1Cl
3. CCCC(=O)O[C@]1(C(=O)COC(=O)CC)CC[C@H]2[C@@H]3CCC4=CC(=O)CC[C@]4(C)[C@H]3[C@@H](O)C[C@@]21C
4. COc1ccc(S(=O)(=O)Nc2nnc(CC(C)C)s2)cc1
5. C=CCOC(=O)c1ccc(C(=O)OCC=C)c(C(=O)OCC=C)c1
6. CCC(C)(C)c1ccc(CC(C)CN2C[C@@H](C)O[C@@H](C)C2)cc1 (stereo partly specified)

Response:
inactive
inactive
-11% [at 13.5 µM] (inactive)
inactive
inactive
inactive

Look up activity change, negative = cytotoxicity for the entries below, preserving their order.
1. CCCCCC(C)O (stereo unspecified)
2. COC(=O)C1=C(C)NC(C)=C(C(=O)OC(C)C)C1c1cccc2nonc12 (stereo unspecified)
3. C=C1C(=C/C=C2\CCC[C@]3(C)[C@@H]([C@H](C)/C=C/[C@@H](O)C4CC4)CC[C@@H]23)C[C@@H](O)C[C@@H]1O
4. C#CCN(C)CCCOc1ccc(Cl)cc1Cl
5. CCOC(=O)CC(C)C
6. CCCCN(CCCC)CC(O)c1cc(Cl)cc2c1-c1ccc(Cl)cc1/C2=C/c1ccc(Cl)cc1 (stereo unspecified)
7. CCC(C)O (stereo unspecified)

Response:
1. inactive
2. inactive
3. inactive
4. inactive
5. inactive
6. inactive
7. inactive
